- Target Of Assay: Recombinant ROCK2 (amino acids 1-552) (Homo sapiens (Human), UniProt O75116)
- Sequence (O75116 1-552): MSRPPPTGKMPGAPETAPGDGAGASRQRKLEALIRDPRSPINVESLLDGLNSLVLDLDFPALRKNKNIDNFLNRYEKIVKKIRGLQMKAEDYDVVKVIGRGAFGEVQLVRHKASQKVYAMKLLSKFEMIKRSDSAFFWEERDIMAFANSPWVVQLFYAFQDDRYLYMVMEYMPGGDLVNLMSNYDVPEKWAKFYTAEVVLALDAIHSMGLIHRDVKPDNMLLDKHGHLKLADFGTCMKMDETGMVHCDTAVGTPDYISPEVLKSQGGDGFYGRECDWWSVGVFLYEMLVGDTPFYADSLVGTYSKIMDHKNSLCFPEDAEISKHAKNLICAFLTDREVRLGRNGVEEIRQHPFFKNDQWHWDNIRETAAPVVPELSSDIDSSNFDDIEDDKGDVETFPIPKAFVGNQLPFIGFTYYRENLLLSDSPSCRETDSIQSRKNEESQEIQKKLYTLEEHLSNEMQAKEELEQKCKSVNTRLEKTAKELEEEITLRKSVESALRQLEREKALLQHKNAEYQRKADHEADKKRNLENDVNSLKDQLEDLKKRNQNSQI
- Assay: Z′-Lyte kinase assay, ROCK2
- Type: biochemical
- Experimental: Determination of Compound's ROCK Inhibitory Activity In Vitro (Z'Lyte Assay). Recombinant ROCK1 (amino acids 1-535) and ROCK2 (amino acids 1-552) proteins were purchased from ThermoFisher Scientific. Compound's activities were measured by Z′-lyte kinase kit (ThermoFisher Scientific) and IC50 was calculated In vitro activities for the compounds were measured with Z′-lyte kinase kit (ThermoFisher Scientific). […] In cell pMLC IC50s were calculated with data obtained from A7R5 cell experiments. […]
pIC50: −log10 of the molar value.
Binary call on pIC50: Satisfied from 8 upward, Not satisfied beneath that.

Kindly determine if pIC50 recorded for CC(=O)N1Cc2nc(N3C4CCC3CNC4)nc(Nc3ccc4[nH]ncc4c3)c2C1 [Example 314] is above or exactly 8.
Not satisfied

Cool, now CCOC(=O)C1NC2CC1CN(c1ncc(F)c(Nc3ccc4[nH]ncc4c3)n1)C2 (stereo not drawn) [Example 339]
Not satisfied

One more molecule: c1cc2c(Nc3ccc4[nH]ncc4c3)nc(N3C4CCC3CNC4)nc2s1 [Example 274]
Satisfied

Same thing, different molecule: c1cc(Nc2ccc(-c3cn[nH]c3)cc2)nc(N2CCNCC2)n1 [Example 38]
Not satisfied

What do you have for Nc1cc(-c2ccc(Nc3ccnc(N4CCNCC4)n3)cc2)ccn1 [Example 359] ?
Not satisfied

Proceed to c1ccc(C2CCN(c3nccc(Nc4ccc(-c5cn[nH]c5)cc4)n3)C2)cc1 (stereo not drawn) [Example 270]
Not satisfied

How about this molecule: Fc1cnc(N2CC3CNCC(C2)O3)nc1Nc1ccc2[nH]ncc2c1 [Example 324]
Not satisfied

Then this molecule: Oc1nc(N2C3CCC2CNC3)nc(Nc2ccc3[nH]ncc3c2)c1F [Example 320]
Not satisfied

Also need CN(C)c1cc(Nc2ccc3[nH]ncc3c2)nc(N2C3CCC2CNC3)n1 [Example 336] , thanks.
Satisfied

Likewise for CN(C)C1CC2CC1CN2c1ncc(F)c(Nc2ccc3[nH]ncc3c2)n1 (stereo not drawn) [Example 335] ?
Not satisfied

One more molecule: Clc1cnc(N2CC3CC(C2)N3)nc1Nc1ccc2[nH]ncc2c1 [Example 280]
Not satisfied

Same lookup for c1cc2[nH]ncc2cc1Nc1nc(N2C3CCC2CNC3)ncc1C1CC1 [Example 309] , please.
Not satisfied

Next record, please: Nc1nnc(-c2ccc(Nc3ccnc(N4CCNCC4)n3)cc2)s1 [Example 356]
Not satisfied

// next record c1cc2nc(N3C4CCC3CNC4)nc(Nc3ccc4[nH]ncc4c3)c2s1 [Example 282]
Satisfied

Field entry: Cc1nc(N2CC3CC2CN3)nc(Nc2ccc3[nH]ncc3c2)c1F (stereo not drawn) [Example 277]
Satisfied

Entry c1cc(-c2cn[nH]c2)ccc1Nc1nc(N2C3CCC2CNC3)nc2c1COC2 [Example 279] please
Not satisfied

Next: Fc1cc2[nH]ncc2cc1Nc1nc(N2C3CCC2CNC3)ncc1Cl [Example 296]
Not satisfied

Also, c1cc(Nc2ccc(-c3cnco3)cc2)nc(N2CCNCC2)n1 [Example 358] please.
Not satisfied

Another: c1cc(-c2cn[nH]c2)ccc1Nc1nc(N2C3CNCC2C3)nc2c1COC2 [Example 316]
Not satisfied

Please answer likewise for CN1CCc2nc(N3C4CCC3CNC4)nc(Nc3ccc(-c4cn[nH]c4)cc3)c2C1 [Example 303]
Not satisfied

O=c1cc(-c2ccc(Nc3ccnc(N4CCNCC4)n3)cc2)cc[nH]1 [Example 360] , same question.
Not satisfied

Let us now turn to O=C1Cc2cc(Nc3ccnc(N4CCNCC4)n3)ccc2N1 [Example 365]
Not satisfied

Check c1cc(Nc2cnc3[nH]ccc3c2)nc(N2CCCNCC2)n1 [Example 370] too.
Not satisfied

Record: FC(F)(F)c1cc(Nc2ccc3[nH]ncc3c2)nc(N2C3CCC2CNC3)n1 [Example 341]
Satisfied

Quick one: N[C@H]1CCN(c2nccc(Nc3ccc(-c4cn[nH]c4)cc3)n2)C1 [Example 254]
Not satisfied

Ok, now Cc1c(Cl)nc(N2C3CCC2CNC3)nc1Nc1ccc2[nH]ncc2c1 [Example 315]
Not satisfied

Repeat with c1cc(-c2ccc(Nc3nc(N4C5CCC4CNC5)nc4c3COC4)cc2)ccn1 [Example 281]
Not satisfied

What about this molecule? CNc1cc(Nc2ccc3[nH]ncc3c2)nc(N2C3CCC2CNC3)n1 [Example 329]
Satisfied

====

- Target Of Assay: Recombinant ROCK1 (amino acids 1-535) (Homo sapiens (Human), UniProt Q13464)
- Sequence (Q13464 1-535): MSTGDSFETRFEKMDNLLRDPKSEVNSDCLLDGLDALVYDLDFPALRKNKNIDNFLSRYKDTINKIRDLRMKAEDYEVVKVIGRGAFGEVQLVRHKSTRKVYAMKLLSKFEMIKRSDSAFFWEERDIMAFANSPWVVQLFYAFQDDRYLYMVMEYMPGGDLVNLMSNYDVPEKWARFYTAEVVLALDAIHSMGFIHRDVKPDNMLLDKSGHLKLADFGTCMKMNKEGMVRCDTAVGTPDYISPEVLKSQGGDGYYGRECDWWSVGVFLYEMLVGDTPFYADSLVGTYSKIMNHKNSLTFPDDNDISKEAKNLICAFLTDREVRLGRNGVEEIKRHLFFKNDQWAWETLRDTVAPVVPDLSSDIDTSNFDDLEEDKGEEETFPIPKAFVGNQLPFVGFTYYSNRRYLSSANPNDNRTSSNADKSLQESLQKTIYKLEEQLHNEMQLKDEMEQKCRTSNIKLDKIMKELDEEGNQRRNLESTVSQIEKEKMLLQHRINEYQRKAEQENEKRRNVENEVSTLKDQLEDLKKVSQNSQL
- Assay: Z′-Lyte kinase assay, ROCK1
- Assay type: biochemical
- Measurement Setup: 0.5 μM compound; read-out: ROCK1 % inh. @ [conc]
- Description: Determination of Compound's ROCK Inhibitory Activity In Vitro (Z'Lyte Assay). Recombinant ROCK1 (amino acids 1-535) and ROCK2 (amino acids 1-552) proteins were purchased from ThermoFisher Scientific. Compound's activities were measured by Z′-lyte kinase kit (ThermoFisher Scientific) and IC50 was calculated In vitro activities for the compounds were measured with Z′-lyte kinase kit (ThermoFisher Scientific). […] In cell pMLC IC50s were calculated with data obtained from A7R5 cell experiments. […]
Answer each item with its documented inhibition at 0.5 µM.
# do not omit the unit; it follows the number

Query inhibition at 0.5 µM on Recombinant ROCK1 (amino acids 1-535) (Homo sapiens (Human), UniProt Q13464) for c1cc2[nH]ncc2cc1Nc1nc(N2CC3CCC(C2)N3)nc2c1COC2 [Example 39]
67%

Also, c1cc(-c2cn[nH]c2)ccc1Nc1nc(N2C3CCC2CNC3)nc2c1CNC2 [Example 276] please.
88%

Also c1cc(-c2cn[nH]c2)ccc1Nc1nc(N2C3CCC2CNC3)nc2c1COCC2 [Example 243] , if possible.
67%

Likewise for CCOC(=O)C12CNCC1(C(F)(F)F)CN(c1ncc(Cl)c(Nc3ccc4[nH]ncc4c3)n1)C2 (stereo not drawn) [Example 338] ?
3%

Record: c1cc2[nH]ncc2cc1Nc1nc(N2C3CCC2CNC3)nc2c1CNC2 [Example 275]
95%

// same read-out, input: c1cc(-c2ccc(Nc3nc(N4C5CCC4CNC5)nc4c3COC4)cc2)ccn1 [Example 281]
14%

Now consider Cc1cnc(N2CCNCC(C)C2)nc1Nc1ccc2[nH]ncc2c1 (stereo not drawn) [Example 196] and answer again.
37%

Subsequent entry: c1cc2[nH]ncc2cc1Nc1nc(N2CC3CC2CN3)nc2c1COC2 (stereo not drawn) [Example 284]
25%

Lookup c1cc2nc(N3CCCNCC3)nc(Nc3ccc4[nH]ncc4c3)c2s1 [Example 10]
94%

Same again, this time with CN(C)c1cc(Nc2ccc3[nH]ncc3c2)nc(N2C3CCC2CNC3)n1 [Example 336]
99%

Entry c1cc2[nH]ncc2cc1Nc1nc(N2C3CNCC2C3)nc2c1COC2 [Example 283] please
101%

Now consider Oc1nc(N2C3CCC2CNC3)nc(Nc2ccc3[nH]ncc3c2)c1F [Example 320] and answer again.
95%

What do you have for c1cc(-c2cn[nH]c2)ccc1Nc1nc(N2C3CNCC2C3)nc2c1COC2 [Example 316] ?
90%

Repeat with c1cc2nc(N3C4CCC3CNC4)nc(Nc3ccc4[nH]ncc4c3)c2s1 [Example 282]
101%

How about this compound: c1cc2c(Nc3ccc4[nH]ncc4c3)nc(N3C4CCC3CNC4)nc2s1 [Example 274]
101%

Another compound to check: c1cc2[nH]ncc2cc1Nc1nc(N2CCCNCC2)nc2c1COC2 [Example 11]
76%

// next record CCCC1CNCCN1c1nccc(Nc2ccc3[nH]ncc3c2)n1 (stereo not drawn) [Example 69]
67%

Same question for COc1nc(N2C3CCC2CNC3)nc(Nc2ccc3[nH]ncc3c2)c1Cl [Example 321] please.
98%

====

Field: IC50. Provide a value for each of the molecules that follow.
- Target Of Assay: Recombinant ROCK1 (amino acids 1-535) (Homo sapiens (Human), UniProt Q13464)
- Assay: Z′-Lyte kinase assay, ROCK1
- Format: biochemical
Provide only the numeric value, understood in nM.

State the recorded IC50 for this entry: c1cc(Nc2ccc3[nH]ncc3c2)nc(N2CCNCC2)n1
31

Next: c1cc(Nc2ccc3[nH]ncc3c2)nc(N2CCCNCC2)n1
16

Try the molecule Oc1nc(N2C3CCC2CNC3)nc(Nc2ccc3[nH]ncc3c2)c1F
8.7

Another molecule: Cc1nc(N2C3CCC2CNC3)nc(Nc2ccc3[nH]ncc3c2)c1C
42

Next up: COc1cnc(N2C3CCC2CNC3)nc1Nc1ccc2[nH]ncc2c1
4.1

====

- Target Of Assay: Recombinant ROCK2 (amino acids 1-552) (Homo sapiens (Human))
- Assay: Z′-Lyte kinase assay, ROCK2
- Type: biochemical
- Measurement Setup: 9 points 2-fold serial dilution
Criterion: IC50 strictly under 0.04 µM. Met: true. Not met: false.

Input Fc1cnc(N2CCNCC2)nc1Nc1ccc2[nH]ncc2c1 ; condition: IC50 strictly below 0.04 µM. Does it hold?
true

Now this one: Cc1cc(Nc2ccc3[nH]ncc3c2)nc(N2CCNCC2C)n1 (stereo not shown)
false

// next record CC1CCN(c2nc(Nc3ccc(-c4ccncc4)cc3)c3ccccc3n2)CCN1 (stereo not shown)
false

Consider next the molecule CCC1CCN(c2nccc(Nc3ccc(-c4ccncc4)cc3)n2)CCN1 (stereo not shown) in the same way.
false

Then what about the molecule Cc1cc(Nc2ccc3[nH]ncc3c2)nc(N2CCNCC(C)C2)n1 (stereo not shown) ?
false

// query: CCC1CNCCN1c1ncc(Cl)c(Nc2ccc3[nH]ncc3c2)n1 (stereo not shown)
false

Similarly, Cc1cc(Nc2ccc3[nH]ncc3c2)nc(N2C3CNCC2C3)n1 ?
true

Follow-up entry: Clc1cnc(N2C3CCC2CNC3)nc1Nc1ccc2[nH]ncc2c1
true

Next molecule up: Cc1cc(Nc2ccc3[nH]ncc3c2)nc(N2CCCNCC2C)n1 (stereo not shown)
false

Note, next up: Fc1cnc(N2C3CCC2CNC3)nc1Nc1ccc2[nH]ncc2c1
true

Then this molecule: CC1CNCCCN1c1nccc(Nc2ccc3[nH]ncc3c2)n1 (stereo not shown)
true

And then Clc1cnc(N2CCNCC2)nc1Nc1ccc2[nH]ncc2c1 , what is it?
false

Try Clc1cnc(N2CC3CC2CN3)nc1Nc1ccc2[nH]ncc2c1 (stereo not shown) next.
true

Now consider c1cc(Nc2ccc3[nH]ncc3c2)nc(N2CC3CCC2CN3)n1 (stereo not shown) and answer again.
false

Same question for c1cc(Nc2ccc(-c3cnn[nH]3)cc2)nc(N2CCNCC2)n1 please.
false

Then Clc1cnc(N2CC3CCC(C2)N3)nc1Nc1ccc2[nH]ncc2c1 ?
false

# iterate: CC1CN(c2nccc(Nc3ccc4[nH]ncc4c3)n2)CCCN1 (stereo not shown)
false

Cool, now COc1cnc(N2CCCNCC2)nc1Nc1ccc2[nH]ncc2c1
false

Now this one: Cc1cc(Nc2ccc3[nH]ncc3c2)nc(N2C3CCC2CNC3)n1
true
